test system: TK-10 renal; experiment: NCI-60 one-dose screen, 48 h; settings: 10 µM unless noted
This is part of a sample that, as a whole, favours compounds with a hit. Of some 83,000 tested, about 20% had one in any assay. Activity calls are given as the source filed them. How the source made its calls: active means growth percent below 10; inactive means the rest.
Labels: YES = active, NO = inactive

compound	target_of_assay	answer_label
CCCCCN(CCCCC)CC(O)c1ccc(C)c(Cl)c1 (configuration not stated)	TK-10 renal	NO
O=C(O)CCC1N=C(c2cccc(O)c2)c2ccccc2NC1=O (configuration not stated)	TK-10 renal	NO
C=CCN1C(=O)C(CC)(CCC(C)C)C(=O)NC1=S (configuration not stated)	TK-10 renal	NO
COc1cc(N(CCCl)CCCl)ccc1C=Nc1ccccc1C(=O)O	TK-10 renal	NO
CC(=O)O[C@H]1CCC2(C)C(=CCC3C2CCC2(C)/C(=N/OC(=O)c4ccc(N(CCCl)CCCl)cc4)CCC32)C1 (some centres not stated)	TK-10 renal	NO
NS(=O)(=O)c1nc[nH]c1[N+](=O)[O-]	TK-10 renal	NO
CC(=O)O[C@H]1CC[C@H]2[C@@H]3CC[C@H]4CC=C(C)C[C@]4(C)[C@H]3CC[C@]12C	TK-10 renal	NO
CNc1ccc(C(=O)CC(O)CCC(C)C2OC(=O)CC(O)CC(=O)CC(O)CC(O)CC(O)CC(O)CC3(O)CC(O)C(C(=O)OC)C(CC(O[C@@H]4O[C@H](C)[C@@H](O)[C@H](N)[C@@H]4O)/C=C/C=C/C=C/C=C/C=C/C=C/C=C/C2C)O3)cc1 (some centres not stated)	TK-10 renal	YES
CC1(C)N=C(N)N=C(N)N1c1ccc(OCCCCOc2ccc(S(=O)(=O)F)cc2)c(Cl)c1	TK-10 renal	NO
CC[C@@H](C)/C=C(C)/C=C/C(=O)c1c(O)c(-c2ccc(O)cc2)cn(O)c1=O	TK-10 renal	NO
CC(=O)C1CCC2C3CC=C4CC(OC(=O)Cc5ccc(N(CCCl)CCCl)cc5)CCC4(C)C3CCC12C (configuration not stated)	TK-10 renal	NO
O=C(CCF)c1ccc(O)cc1	TK-10 renal	NO
Nc1cccc(CC(=O)Nc2ccc(S(=O)(=O)F)cc2)c1	TK-10 renal	NO
COc1cc(CNCCc2ccc(Cl)cc2)cc(OC)c1O	TK-10 renal	NO
CCC[CH2][Sn]([CH2]CCC)([CH2]CCC)[O]C(=O)c1ccc(Cl)cc1Cl	TK-10 renal	YES
OC1(c2ccc(Cl)cc2Cl)c2ccccc2C2=NCCN21 (configuration not stated)	TK-10 renal	NO
CC(C)(C)N(Cc1ccccc1)N=O	TK-10 renal	NO
C=CCC1(CC)C(=O)NC(=S)NC1=O	TK-10 renal	NO
[Cl][Hg][n]1cnc2c(Cl)c(Cl)c(Cl)cc21	TK-10 renal	NO
CC(=O)O[C@@H]1C2=C(C)C3(CC3)[C@@](C)(O)C(=O)C2=C[C@@]1(C)CO	TK-10 renal	YES
C[C@]12CC[C@H]3[C@@H](C[C@@H]4N=C(c5ccc(O)cc5)S[C@@]45C[C@H](O)CC[C@]35C)[C@@H]1CC[C@@H]2O	TK-10 renal	NO
C#CC1(O)CCC2(C)C(CCC3C4CCC(=O)C4(C)CCC32)C1 (configuration not stated)	TK-10 renal	NO

---

tested on: HL-60(TB) leukemia; experiment: NCI-60 one-dose screen, 48 h; settings: 10 µM unless noted
About 83,000 compounds went through this panel and 20% of them were active in at least one assay; those are over-represented in the sample as a whole. Active and inactive are the calls of the source. The calls were made as follows: active = growth percent below 10; inactive = the rest.
Outcome codes: active, inactive

compound	answer_label
CC(C)(C)C1CCC(=NO)CC1 (centres undefined)	inactive
COc1cccc(/C=N/NC(=O)c2cnn3c2NC(c2ccccc2)C3)c1Oc1ccccc1 (centres undefined)	inactive
O=C(CCN1C(=O)c2ccccc2C1=O)Nc1ccc(Cl)cc1	inactive
Cn1cc(-c2cnn3c(N)c(Br)c([C@@H]4CCCNC4)nc23)cn1	inactive
Cc1cc(=O)oc2cc(OCc3cn(CC(O)CO)nn3)ccc12 (centres undefined)	inactive
CC(CCc1ccccc1)NC(=O)c1n[nH]c(=O)c2ccccc12 (centres undefined)	inactive
O=C(O)c1nn(-c2ccc(Cl)cc2)nc1N1CCCC1	inactive
OC(c1ccccc1)(c1ccccc1)C(F)(F)F	inactive
CCOP(=O)(CCN1CCN(CCCCCOc2cc3c(cc2OC)C(=O)N2CCC[C@H]2C=N3)CC1)OCC	inactive
COc1ccc(NC(=O)CSc2nc(-c3ccc(OC)c(OC)c3)cc(-c3cc(OC)c(OC)c(OC)c3)n2)cc1	inactive
CCc1cc2c(cc1N1CCC(N3CCOCC3)CC1)C(C)(C)c1[nH]c3cc(C#N)ccc3c1C2=O	active
Cc1cc(N(CCNc2ccnc3cc(Cl)ccc23)Cc2cccs2)nc(Cl)n1	active
CCOC(=O)C1C(=O)C(=O)N(C(C)C)C1C(=O)OCC (centres undefined)	inactive
Cn1cc(-c2ccc3ncc(-c4ccc(CC(=O)Nc5cc(C(C)(C)C)nn5C)cc4)cc3c2)cn1	active
